Test system: HT-29
Experiment: NCI tumour cell line growth inhibition, 48 h
Activity calls are given as the source filed them. Cut-off read from the data, not from the text of the source: active = GI50 up to about 1.1 µM and inactive = higher.
Property: GI50

Use these answered entries as a reference point.
{"Molecule": "O=c1c2c(nc3[nH]ccn13)CCC2", "GI50": "> 10 µM (inactive)"}
{"Molecule": "OCC(O)COc1ccc(F)cc1 (stereo unspecified)", "GI50": "> 100 µM (inactive)"}
{"Molecule": "O=c1c2cc(S(=O)(=O)O)ccc2nc(COc2ccc(Oc3ccc(Cl)cc3Cl)cc2)n1-c1ccc(Cl)cc1Oc1c(Cl)cccc1Cl", "GI50": "20 µM (inactive)"}
{"Molecule": "CCN(CC)CCC(=O)Nc1ccc2sc3ccccc3c(=O)c2n1", "GI50": "36.7 µM (inactive)"}
{"Molecule": "CCOC(=O)c1ccc(/N=c2/[nH]c3ccccc3s/c2=N/c2ccc(C(=O)OCC)cc2)cc1", "GI50": "70.3 µM (inactive)"}

Endpoint output: GI50 of O=C(C(=O)n1ccc2ccccc21)c1c[nH]c2ccccc12 . Value? > 10 µM (inactive)

---

Measured GI50 accompanies every entry in the list below.
System: SK-MEL-5
Experiment: NCI tumour cell line growth inhibition, 48 h
The source made the active and inactive calls. Cut-off read from the data, not from the text of the source: active = GI50 up to about 1.1 µM and inactive = higher.

Use these answered entries as a reference point.
{"Compound": "CN(C)CCCC1c2ccccc2Oc2ccc(C(F)(F)F)cc21 (stereo unspecified)", "GI50": "7.45 µM (inactive)"}
{"Compound": "C=CCN(c1cc(OC)c2[nH]c(C(=O)O)c(C)c2c1[N+](=O)[O-])S(C)(=O)=O", "GI50": "> 100 µM (inactive)"}
{"Compound": "C/C(=N/NC(=S)N1CCN(C(=S)N/N=C(/C)c2ccccn2)CC1)c1ccccn1", "GI50": "6.97 µM (inactive)"}

Endpoint output: GI50 of CN1CCN(CC(=O)Nc2cccc3ccccc23)CC1 . Value? > 100 µM (inactive)

Endpoint output: GI50 of O=C(NN=C1CCCCC1)NN=C1CCCCC1 . Value? > 100 µM (inactive)

Endpoint output: GI50 of Nc1cc(N2CCCC2)nc(=O)n1-c1ccccc1 . Value? > 100 µM (inactive)

Endpoint output: GI50 of COC1=C2CC(C)CC(OC)C(OC(=O)CCCN)C(C)/C=C(\C)C(OC(N)=O)C(OC)/C=C\C=C(/C)C(=O)NC(=CC1=O)C2=O (stereo unspecified) . Value? 9.14 µM (inactive)

Endpoint output: GI50 of CN(C)CCNc1ccc(NCCN(C)C)c2c1C(=O)c1ncsc1C2=O . Value? 15.8 µM (inactive)

Endpoint output: GI50 of COc1cc([C@@H]2c3cc4c(cc3[C@@H](c3c(O)cc(O)c5c3O[C@H](c3ccc(O)c(O)c3)[C@H](OC(=O)c3cc(O)c(O)c(O)c3)C5)[C@H]3COC(=O)[C@H]23)OCO4)cc(OC)c1OC . Value? 7.38 µM (inactive)

Endpoint output: GI50 of Cc1cc(N(CCC#N)CCC#N)ccc1/C=C/C(=O)Nc1ccccc1Cl . Value? > 100 µM (inactive)

Endpoint output: GI50 of O=C(CCc1ccccc1)NCCc1ccc(O)c(O)c1 . Value? 16.7 µM (inactive)

Endpoint output: GI50 of COC(=O)C1(C)NCCc2c1[nH]c1ccccc21 (stereo unspecified) . Value? > 100 µM (inactive)

Endpoint output: GI50 of COc1cc(-c2c3c([nH]c(=O)c2C#N)-c2cc([N+](=O)[O-])ccc2CCC3)cc(OC)c1OC . Value? 12.9 µM (inactive)

Endpoint output: GI50 of C[C@H]1C[C@H](C)c2ccccc2N(C)/C1=N\c1ccccc1 . Value? 16.7 µM (inactive)

Endpoint output: GI50 of O=C(O)c1ccccc1CC(Cc1ccc2c(c1)CCC2)C(=O)O (stereo unspecified) . Value? > 100 µM (inactive)

Endpoint output: GI50 of COC(=O)C(=O)C(C(=O)C(=O)Nc1cc(C)ccc1C)c1nc2ccccc2nc1O (stereo unspecified) . Value? > 100 µM (inactive)

Endpoint output: GI50 of N#Cc1c2ccc([N+](=O)[O-])cc2c(=O)n2c1sc1ccccc12 . Value? 22 µM (inactive)

Endpoint output: GI50 of COc1ccc(-c2oc3ccc(C)cc3c(=O)c2O)cc1 . Value? > 100 µM (inactive)

Endpoint output: GI50 of COc1ccc(C2OC[C@H]3O[C@@H](OCc4ccccc4)[C@H](O)[C@@H](O)[C@@H]3O2)cc1 (stereo partly specified) . Value? 58.2 µM (inactive)

Endpoint output: GI50 of CC(=O)Nc1cccc(/N=N/N(C)C)c1 . Value? > 100 µM (inactive)

Endpoint output: GI50 of CN(C)/C=N\c1cccc2cnccc12 . Value? > 100 µM (inactive)

---

Measured GI50 accompanies every entry in the list below.
Tested on: MDA-MB-435
Experiment: NCI tumour cell line growth inhibition, 48 h
Calls of active or inactive are those of the source. Cut-off read from the data, not from the text of the source: active = GI50 up to about 1.1 µM and inactive = higher.

Use these answered entries as a reference point.
{"Molecule": "O=C1/C(=C\\c2ccc(Cl)cc2)N=C(c2ccccc2)N1n1c(=O)cn[nH]c1=S", "GI50": "30.5 µM (inactive)"}
{"Molecule": "CCOC(=O)NC", "GI50": "> 100 µM (inactive)"}
{"Molecule": "Cc1nc(C)c(N2CCN(C(=O)NC(CCC(=O)O)C(=O)O)CC2)c(O)n1 (configuration not stated)", "GI50": "> 100 µM (inactive)"}
{"Molecule": "Cc1ccc(S(=O)(=O)NC(=O)NCc2ccc(S(N)(=O)=O)cc2)cc1", "GI50": "> 100 µM (inactive)"}
{"Molecule": "Nc1c(Cl)ncnc1N[C@@H]1C[C@H]1CO", "GI50": "> 100 µM (inactive)"}
{"Molecule": "CC1(C)C[C@H]2C3=CC[C@@H]4[C@@]5(C)CC[C@H](O)C(C)(C)[C@@H]5CC[C@@]4(C)[C@]3(C)C[C@@H](O)[C@@]23C[C@@H]1OC3=O", "GI50": "> 100 µM (inactive)"}

Endpoint output: GI50 of C=C1OC2OC(C)C(NC(=O)OCC(Cl)(Cl)Cl)C(OC(C)=O)C2O1 (configuration not stated) . Value? > 100 µM (inactive)

Endpoint output: GI50 of O=C1OC(c2ccccc2)=N/C1=C\c1ccc([N+](=O)[O-])cc1 . Value? > 100 µM (inactive)

---

System: UACC-62
Assay: NCI tumour cell line growth inhibition, 48 h
Active and inactive are the calls of the source. Rule as the data show it: active = GI50 up to about 1.1 µM and inactive = higher.
Property: GI50

Endpoint output: GI50 of CN(C)/C=N\c1cccc2cnccc12 . Value? > 100 µM (inactive)

Endpoint output: GI50 of C/C(=N/NC(=S)N1CCN(C(=S)N/N=C(/C)c2ccccn2)CC1)c1ccccn1 . Value? 6.71 µM (inactive)

Endpoint output: GI50 of CCOC(=O)c1ccc(Nc2nc3ccc(C(F)(F)F)cc3nc2-c2ccccc2)cc1 . Value? 28.2 µM (inactive)

Endpoint output: GI50 of Oc1ccc([C@H]2c3c(O)cc(O)cc3C3c4c(cc(O)cc4[C@@H]2[C@H]2c4cc(O)cc5c4C(c4cc(O)cc(O)c4[C@@H]2c2ccc(O)cc2)[C@@H](c2ccc(O)cc2)O5)O[C@@H]3c2ccc(O)cc2)cc1 (some centres undefined) . Value? 0.15 µM (active)

Endpoint output: GI50 of CN1CCN(CN2C(=O)C3C4C=CC(C3C2=O)C2C3C(=O)N(CN5CCN(C)CC5)C(=O)C3C42)CC1 (centres undefined) . Value? 24.1 µM (inactive)

Endpoint output: GI50 of CC(=O)c1sc2[n+](c1C)C(=O)/C(=C\c1ccccc1Cl)S2 . Value? 13.1 µM (inactive)

---

System: KM12
Test: NCI tumour cell line growth inhibition, 48 h
Calls of active or inactive are those of the source. Rule as the data show it: active = GI50 up to about 1.1 µM and inactive = higher.
Parameter call: string, one of active, inactive

{"Compound": "CN1C(=O)C(=Cc2ccc(Br)cc2)C(=O)N(C)C1=O", "Experimental system": "KM12", "Cat": "inactive"}
{"Compound": "Cc1ccc(SC[C@@]2(C(F)F)NC(=O)NC2=O)cc1", "Experimental system": "KM12", "Cat": "inactive"}
{"Compound": "O=C1C(=c2cc3c(c4ccccc24)=NC24CCCCC2C(c2ccccc2)C=C(c2ccccc2)N34)C(=O)c2ccccc21 (configuration not stated)", "Experimental system": "KM12", "Cat": "inactive"}
{"Compound": "COC(=O)C1=C(O)c2cc(OC)c(OC)c(OC)c2[C@H](c2cc(OC)c(OC)c(OC)c2)C1C(=O)OC (some centres not stated)", "Experimental system": "KM12", "Cat": "inactive"}
{"Compound": "N#Cc1ccc(/C=C(/C(=O)c2ccccc2)c2ccccc2)cc1", "Experimental system": "KM12", "Cat": "inactive"}
{"Compound": "CC(C)OP(=O)(OC(C)C)C(C(C)C)N(C)/C(F)=N/C(F)(F)F (configuration not stated)", "Experimental system": "KM12", "Cat": "inactive"}
{"Compound": "C=C1C(=O)OC2/C=C(\\C)C(O)CC(O)C(C)(O)CC(OC(=O)/C(C)=C/C)C12 (configuration not stated)", "Experimental system": "KM12", "Cat": "inactive"}
{"Compound": "C=C1C[C@@H]2CC[C@@]34CC5O[C@H]6C(O[C@H]7CC[C@H](CC(=O)O[C@@H]8[C@@H](C)[C@@H]9O[C@@H]%10C[C@]%11(C[C@@H]%12O[C@]%13(C[C@H](C)[C@@H]%14O[C@@H]%15CC(C(O)CO)O[C@@H]%15C[C@@H]%14O%13)C[C@H](C)[C@@H]%12O%11)O[C@@H]%10C[C@@H]9O[C@H]8CC8O[C@@H](CC[C@@H]1O2)C[C@@H](C)C8(O)CO)O[C@@H]7[C@@H]6O3)[C@H]5O4 (some centres not stated)", "Experimental system": "KM12", "Cat": "active"}
{"Compound": "Nc1ncnc2c1ncn2C1OC(C(=O)OCCO)C(O)C1O (configuration not stated)", "Experimental system": "KM12", "Cat": "inactive"}
{"Compound": "C[n+]1c(-c2ccccc2)cc2/c(=C\\c3ccccc3)c3ccccc3n21", "Experimental system": "KM12", "Cat": "active"}

Could you please tell me the result logged for CCOC(=O)c1nc2cc(C(F)(F)F)ccc2nc1Oc1ccc(OC)cc1 in this assay? inactive

Could you please tell me the result logged for Cc1sc2nc3n(c(=O)c2c1C)N=CN(c1ccc(F)cc1)C3 in this assay? inactive

Recorded values, source ChEMBL document CHEMBL1201862.
